Molecular target: human MAGL (His-hMAGL) (Homo sapiens, UniProt Q99685)
Construct: made in house; host or cells: Escherichia coli BL21(DE3)
Sequence (Q99685 whole entry): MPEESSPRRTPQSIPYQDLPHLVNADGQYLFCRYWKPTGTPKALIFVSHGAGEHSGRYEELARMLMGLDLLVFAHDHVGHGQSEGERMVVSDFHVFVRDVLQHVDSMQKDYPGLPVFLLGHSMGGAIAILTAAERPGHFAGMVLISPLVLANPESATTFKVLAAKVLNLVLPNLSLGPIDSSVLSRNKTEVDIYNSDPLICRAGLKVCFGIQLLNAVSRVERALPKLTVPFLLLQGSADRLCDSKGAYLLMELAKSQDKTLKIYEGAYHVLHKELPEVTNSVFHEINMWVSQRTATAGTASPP
Experiment: Measurement of MAGL inhibitory activity by mass spectrometry
Format: biochemical
Conditions: MAGL inhibitory rate, test compound 10 μM, His-hMAGL, substrate 2-arachidonylglycerol, RapidFire-mass spectrometry
Property: inhibition at 10 µM (%)

| Molecule | Quantitative Readout |
| --- | --- |
| O=C(c1cscn1)N1CCN([C@@H]2CC(=O)N(c3ccc4c(ccn4-c4cccc(C(F)(F)F)c4)c3)C2)CC1 | 100 |
| C[C@@H]1CN(C(=O)c2nccs2)CCN1C1CC(=O)N(c2ccc3c(ccn3-c3ccc(F)cc3)c2)C1 (stereo partly shown) | 96 |
| Cc1ccccc1-c1cccc(N2CC(N3CCN(c4ncccn4)CC3)CC2=O)c1 (stereo not shown) | 101 |
| O=C(c1cscn1)N1CCN([C@@H]2CC(=O)N(c3ccc4c(ccn4-c4ccc(C(F)(F)F)cc4)c3)C2)CC1 | 96 |
| O=C(c1nccs1)N1CCN(C2CC(=O)N(c3cccc(-c4ccc(OC(F)(F)F)cc4)c3)C2)CC1 (stereo not shown) | 93 |
| O=C(c1cscn1)N1CCN([C@@H]2CC(=O)N(c3ccc4c(c3)CCN4c3ncc(C(F)(F)F)cn3)C2)CC1 | 99 |
| O=C(c1nccs1)N1CCN(C2CC(=O)N(c3cccc(-c4cccc5[nH]ccc45)c3)C2)CC1 (stereo not shown) | 103 |

###

inhibition at 10 µM: recorded values
Biological target: human MAGL (His-hMAGL) (Homo sapiens, UniProt Q99685)
Construct: made in house; host or cells: Escherichia coli BL21(DE3)
Experiment: Measurement of MAGL inhibitory activity by mass spectrometry
Type: biochemical
Settings: MAGL inhibitory rate, test compound 10 μM, His-hMAGL, substrate 2-arachidonylglycerol, RapidFire-mass spectrometry

| Compound | Target Or System | Readout Unit | inhibition at 10 µM |
| --- | --- | --- | --- |
| O=C(c1nccs1)N1CCN(C2CC(=O)N(c3ccc4c(c3)CCN4c3ccc(C(F)(F)F)cn3)C2)CC1 (stereo not shown) [Example 383] | human MAGL (His-hMAGL) (Homo sapiens, UniProt Q99685) | % | 98 |
| Cc1nn(C)cc1-c1ccc(N2CC(N3CCN(C(=O)c4nccs4)CC3)CC2=O)cc1 (stereo not shown) [Example 181] | human MAGL (His-hMAGL) (Homo sapiens, UniProt Q99685) | % | 94 |
| Cc1nn(C)cc1-c1cccc(N2CC(N3CCN(C(=O)c4nccs4)CC3)CC2=O)c1 (stereo not shown) [Example 325] | human MAGL (His-hMAGL) (Homo sapiens, UniProt Q99685) | % | 101 |
| O=C(c1cscn1)N1CCN([C@@H]2CC(=O)N(c3ccc4c(ccn4-c4cc(C(F)(F)F)ccn4)c3)C2)CC1 [Example 425] | human MAGL (His-hMAGL) (Homo sapiens, UniProt Q99685) | % | 100 |
| Cc1cccc(-n2ccc3cc(N4CC(N5CCN(C(=O)c6nccs6)CC5)CC4=O)ccc32)n1 (stereo not shown) [Example 238] | human MAGL (His-hMAGL) (Homo sapiens, UniProt Q99685) | % | 100 |
| O=C(c1nccs1)N1CCN(C2CC(=O)N(c3cccc(-c4ccccc4)c3F)C2)CC1 (stereo not shown) [Example 244] | human MAGL (His-hMAGL) (Homo sapiens, UniProt Q99685) | % | 98 |
| O=C(c1nccs1)N1CCN(C2CC(=O)N(c3cccc(-c4c[nH]nc4C(F)(F)F)c3)C2)CC1 (stereo not shown) [Example 327] | human MAGL (His-hMAGL) (Homo sapiens, UniProt Q99685) | % | 100 |

###

inhibition at 10 µM: recorded values
Biological target: human MAGL (His-hMAGL) (Homo sapiens, UniProt Q99685)
Construct: made in house; host or cells: Escherichia coli BL21(DE3)
Assay: Measurement of MAGL inhibitory activity by mass spectrometry
Type: biochemical
Settings: 10 μM test compound; substrate 2-arachidonylglycerol, arachidonic acid by RapidFire-mass spectrometry
Property: inhibition at 10 µM

| Molecule | Target Or System | Result |
| --- | --- | --- |
| O=C(c1nccs1)N1CCN(C2CC(=O)N(c3ccc4c(c3)CCN4c3ncc(C(F)(F)F)cn3)C2)CC1 (stereo not shown) [Example 141] | human MAGL (His-hMAGL) (Homo sapiens, UniProt Q99685) | 98% |
| Cc1ccc(C)c(-c2cccc(N3CC(N4CCN(C(=O)c5nccs5)CC4)CC3=O)c2)c1 (stereo not shown) [Example 144] | human MAGL (His-hMAGL) (Homo sapiens, UniProt Q99685) | 101% |
| O=C(c1nccs1)N1CCN(C2CC(=O)N(c3cncc(-c4ccccc4)c3)C2)CC1 (stereo not shown) [Example 131] | human MAGL (His-hMAGL) (Homo sapiens, UniProt Q99685) | 91% |
| CC(=O)N1CCCC(Nc2cccc(N3CC(N4CCN(C(=O)c5nccs5)CC4)CC3=O)c2)C1 (stereo not shown) [Example 126] | human MAGL (His-hMAGL) (Homo sapiens, UniProt Q99685) | 97% |
| Cc1cccc(-c2cccc(N3CC(N4CCN(C(=O)c5nccs5)CC4)CC3=O)c2)n1 (stereo not shown) [Example 150] | human MAGL (His-hMAGL) (Homo sapiens, UniProt Q99685) | 96% |
| Cc1cnccc1-c1ccc(N2CC(N3CCN(C(=O)c4nccs4)CC3)CC2=O)cc1 (stereo not shown) [Example 178] | human MAGL (His-hMAGL) (Homo sapiens, UniProt Q99685) | 81% |
| Cc1ccnc(-c2cccc(N3CC(N4CCN(C(=O)c5nccs5)CC4)CC3=O)c2)c1 (stereo not shown) [Example 152] | human MAGL (His-hMAGL) (Homo sapiens, UniProt Q99685) | 99% |
| COc1ccccc1-c1cccc(N2CC(N3CCN(C(=O)c4nccs4)CC3)CC2=O)c1 (stereo not shown) [Example 134] | human MAGL (His-hMAGL) (Homo sapiens, UniProt Q99685) | 100% |
| CCn1nccc1-c1cccc(N2CC(N3CCN(C(=O)c4nccs4)CC3)CC2=O)c1 (stereo not shown) [Example 156] | human MAGL (His-hMAGL) (Homo sapiens, UniProt Q99685) | 100% |
| CC(=O)Nc1cccc(Nc2cccc(N3CC(N4CCN(C(=O)c5nccs5)CC4)CC3=O)c2)c1 (stereo not shown) [Example 118] | human MAGL (His-hMAGL) (Homo sapiens, UniProt Q99685) | 99% |
| CCc1ccccc1-c1cccc(N2CC(N3CCN(C(=O)c4nccs4)CC3)CC2=O)c1 (stereo not shown) [Example 142] | human MAGL (His-hMAGL) (Homo sapiens, UniProt Q99685) | 100% |
| O=C(c1nccs1)N1CCN(C2CC(=O)N(c3cccc(-c4ccccc4)n3)C2)CC1 (stereo not shown) [Example 140] | human MAGL (His-hMAGL) (Homo sapiens, UniProt Q99685) | 100% |
| NS(=O)(=O)c1cccc(-c2cccc(N3CC(N4CCN(C(=O)c5nccs5)CC4)CC3=O)c2)c1 (stereo not shown) [Example 103] | human MAGL (His-hMAGL) (Homo sapiens, UniProt Q99685) | 100% |
| NS(=O)(=O)c1ccc(-c2cccc(N3CC(N4CCN(C(=O)c5nccs5)CC4)CC3=O)c2)cc1 (stereo not shown) [Example 102] | human MAGL (His-hMAGL) (Homo sapiens, UniProt Q99685) | 96% |
| O=C(c1nccs1)N1CCN(C2CC(=O)N(c3cccc(NC4CCCCC4)c3)C2)CC1 (stereo not shown) [Example 115] | human MAGL (His-hMAGL) (Homo sapiens, UniProt Q99685) | 97% |
| CC(=O)N(C)c1ccc(Nc2cccc(N3CC(N4CCN(C(=O)c5nccs5)CC4)CC3=O)c2)cc1 (stereo not shown) [Example 117] | human MAGL (His-hMAGL) (Homo sapiens, UniProt Q99685) | 99% |
| CS(=O)(=O)Nc1ccc(-c2cccc(N3CC(N4CCN(C(=O)c5nccs5)CC4)CC3=O)c2)cc1 (stereo not shown) [Example 110] | human MAGL (His-hMAGL) (Homo sapiens, UniProt Q99685) | 99% |
| O=C1Cc2cc(-c3cccc(N4CC(N5CCN(C(=O)c6nccs6)CC5)CC4=O)c3)ccc2N1 (stereo not shown) [Example 105] | human MAGL (His-hMAGL) (Homo sapiens, UniProt Q99685) | 101% |
| O=C(c1nccs1)N1CCN(C2CC(=O)N(c3cccc(-c4c(Cl)cccc4Cl)c3)C2)CC1 (stereo not shown) [Example 146] | human MAGL (His-hMAGL) (Homo sapiens, UniProt Q99685) | 100% |
| O=C(c1nccs1)N1CCN(C2CC(=O)N(c3ccc4c(ccn4-c4cnc(C(F)(F)F)cn4)c3)C2)CC1 (stereo not shown) [Example 129] | human MAGL (His-hMAGL) (Homo sapiens, UniProt Q99685) | 101% |
| Cc1cccc(-c2cccc(N3CC(N4CCN(C(=O)c5nccs5)CC4)CC3=O)c2)c1 (stereo not shown) [Example 91] | human MAGL (His-hMAGL) (Homo sapiens, UniProt Q99685) | 102% |
| O=C(c1nccs1)N1CCN(C2CC(=O)N(c3ccc4[nH]ccc4c3)C2)CC1 (stereo not shown) [Example 113] | human MAGL (His-hMAGL) (Homo sapiens, UniProt Q99685) | 80% |
| O=C(c1nccs1)N1CCN(C2CC(=O)N(c3cccc(-c4ccccc4C(F)(F)F)c3)C2)CC1 (stereo not shown) [Example 138] | human MAGL (His-hMAGL) (Homo sapiens, UniProt Q99685) | 101% |
| CN1CC(Nc2cccc(N3CC(N4CCN(C(=O)c5nccs5)CC4)CC3=O)c2)CCC1=O (stereo not shown) [Example 127] | human MAGL (His-hMAGL) (Homo sapiens, UniProt Q99685) | 99% |
| Cc1cc(-c2cccc(N3CC(N4CCN(C(=O)c5nccs5)CC4)CC3=O)c2)n(C)n1 (stereo not shown) [Example 157] | human MAGL (His-hMAGL) (Homo sapiens, UniProt Q99685) | 99% |
| Cc1ccncc1-c1ccc(N2CC(N3CCN(C(=O)c4nccs4)CC3)CC2=O)cc1 (stereo not shown) [Example 177] | human MAGL (His-hMAGL) (Homo sapiens, UniProt Q99685) | 80% |
| Cc1ccccc1-c1ccc(N2CC(N3CCN(C(=O)c4nccs4)CC3)CC2=O)cc1 (stereo not shown) [Example 176] | human MAGL (His-hMAGL) (Homo sapiens, UniProt Q99685) | 100% |
| CC(=O)Nc1cccc(-c2cccc(N3CC(N4CCN(C(=O)c5nccs5)CC4)CC3=O)c2)c1 (stereo not shown) [Example 95] | human MAGL (His-hMAGL) (Homo sapiens, UniProt Q99685) | 99% |
| CS(=O)(=O)Nc1cccc(-c2cccc(N3CC(N4CCN(C(=O)c5nccs5)CC4)CC3=O)c2)c1 (stereo not shown) [Example 100] | human MAGL (His-hMAGL) (Homo sapiens, UniProt Q99685) | 101% |
| O=C(c1nccs1)N1CCN(C2CC(=O)N(c3ccc4c(ccn4-c4ccc(C(F)(F)F)nc4)c3)C2)CC1 (stereo not shown) [Example 111] | human MAGL (His-hMAGL) (Homo sapiens, UniProt Q99685) | 99% |
| Cc1cccc(-c2cccc(N3CC(N4CCN(C(=O)c5nccs5)CC4)CC3=O)c2)c1C (stereo not shown) [Example 143] | human MAGL (His-hMAGL) (Homo sapiens, UniProt Q99685) | 102% |
